Assay: Pharmacokinetic (PK) assay in mice
Assay type: in vivo
Conditions: mouse, plasma; Po 5 mg/kg vs IV 1 mg/kg, CD-1 mice
Assign bioavailability to each entry below.
Report only the number, with the unit % understood.

Please report bioavailability for the following compound: CCS(=O)(=O)c1ccc(C(COC)C(=O)Nc2cc(Cl)c(-c3ccc(S(C)(=O)=O)cc3)c(Cl)c2)cc1 (stereo not drawn) 40

Please report bioavailability for the following compound: COCC(C(=O)Nc1ccc(-c2ccc(S(=O)(=O)C3CC3)cc2)c(C(F)(F)F)c1)c1ccc(S(C)(=O)=O)cc1 (single isomer, unassigned) 89.1

Please report bioavailability for the following compound: CCS(=O)(=O)c1ccc(-c2c(Cl)cc(NC(=O)C(COC)c3ccc(S(C)(=O)=O)cc3)cc2Cl)cc1 (stereo not drawn) 29.7

Please report bioavailability for the following compound: CCS(=O)(=O)c1ccc(C(COC)C(=O)Nc2cc(Cl)c(-c3ccc(S(=O)(=O)C4CC4)cc3)c(Cl)c2)cc1 (stereo not drawn) [Example 16] 56.3

Please report bioavailability for the following compound: CCS(=O)(=O)c1ccc(C(COC)C(=O)Nc2cc(Cl)c(-c3ccc(S(=O)(=O)C4CC4)cc3)c(Cl)c2)cc1 (single isomer, unassigned) [Example 41] 116

Please report bioavailability for the following compound: CC(C)(C[C@H]1CN(S(=O)(=O)c2cccc(C(F)(F)F)c2)c2cc(-c3cc(F)cc(OC(F)F)c3)ccc2O1)C(=O)O [LYC-55716, reference compound] 21

Please report bioavailability for the following compound: CCS(=O)(=O)c1ccc(CC(=O)Nc2cc(Cl)c(-c3ccc(S(=O)(=O)C4CC4)cc3)c(Cl)c2)nc1 30.9

Please report bioavailability for the following compound: CCS(=O)(=O)c1ccc(-c2c(Cl)cc(NC(=O)Cc3ccc(S(=O)(=O)CC)cn3)cc2Cl)cc1 38.8

Please report bioavailability for the following compound: CS(=O)(=O)c1ccc(C(CO)C(=O)Nc2cc(Cl)c(-c3ccc(S(=O)(=O)C4CC4)cc3)c(Cl)c2)cc1 (single isomer, unassigned) 15.8
